# Assay details: NCI Yeast Anticancer Drug Screen. Data for the rad52 strain (AID 147)
# Experimental setup: S. cerevisiae rad52 mutant growth inhibition; at 33.0 µM; stronger effect = higher value
About 79,000 compounds went through this panel and 15% of them were active in at least one assay; those are over-represented in the sample as a whole.
Binning rule for recorded growth inhibition: one (below 30%), two (30% to below 90%), three (90% or more)

Record excerpt, results attached:
>>> class_assignment("O=[N+]([O-])[O][Sn]([O][Sn]([O][N+](=O)[O-])([c]1ccccc1)[c]1ccccc1)([c]1ccccc1)[c]1ccccc1")
"two"
>>> class_assignment("CCOC(=O)/C(=C/c1cccc(Cl)c1)N(CC)CC")
"two"
>>> class_assignment("COc1ccc2nc3cccc([N+](=O)[O-])c3c(NCCNCCN(C)C)c2c1")
"one"

Band for the recorded growth inhibition of "COc1ccc2nc3cccc([N+](=O)[O-])c3c(NCCNCCO)c2c1" ?
three

Any idea which band "CC1(C)CC(=O)C(/C=N/c2nc(-c3ccc(Br)cc3)cs2)=C(O)C1" is in?
three

Classify this molecule: "C[n+]1c(/C=C/c2ccc(/C=N/NC(=O)c3ccc(C(=O)N/N=C/c4ccc(/C=C/c5cn6ccccc6[n+]5C)cc4)cc3)cc2)cn2ccccc21"
three

Class label required: COc1ccc2cc(C(C)C(=O)N3CCOC3=O)ccc2c1 (stereo unspecified)
one

These entries and their values trace back to PubChem BioAssay (NCI).
